- measurementTarget: HIV-1 Env of strain AC10.0.29 (HIV-1)
measuredMetric: In vitro neutralization IC50 (µg/mL)

binder="3BNC117 IgG (wild type) (antibody) heavy: QVQLLQSGAAVTKPGASVRVSCEASGYNIRDYFIHWWRQAPGQGLQWVGWINPKTGQPNNPRQFQGRVSLTRHASWDFDTFSFYMDLKALRSDDTAVYFCARQRSDYWDFDVWGSGTQVTVSS light: DIQMTQSPSSLSASVGDTVTITCQANGYLNWYQQRRGKAPKLLIYDGSKLERGVPSRFSGRRWGQEYNLTINNLQPEDIATYFCQVYEFVVPGTRLDLKRTVA" measuredmetric="In vitro neutralization IC50" comparator== measuredresult=6.5
binder="3BNC60 IgG (wild type) (antibody) heavy: QVHLSQSGAAVTKPGASVRVSCEASGYKISDHFIHWWRQAPGQGLQWVGWINPKTGQPNNPRQFQGRVSLTRQASWDFDTYSFYMDLKAVRSDDTAIYFCARQRSDFWDFDVWGSGTQVTVSS light: DIQMTQSPSSLSARVGDTVTITCQANGYLNWYQQRRGKAPKLLIYDGSKLERGVPARFSGRRWGQEYNLTINNLQPEDVATYFCQVYEFIVPGTRLDLKRTVA" measuredmetric="In vitro neutralization IC50" comparator== measuredresult=13
binder="12A12 IgG (wild type) (antibody, V domains shown) VH: SQHLVQSGTQVKKPGASVRISCQASGYSFTDYVLHWWRQAPGQGLEWMGWIKPVYGARNYARRFQGRINFDRDIYREIAFMDLSGLRSDDTALYFCARDGSGDDTSWHLDPWGQGTLVIVSA VL: DIQMTQSPSSLSASVGDRVTITCQAGQGIGSSLQWYQQKPGKAPKLLVHGASNLHRGVPSRFSGSGFHTTFSLTISGLQRDDFATYFCAVLEFFGPGTKVEIKR" measuredmetric="In vitro neutralization IC50" comparator== measuredresult=0.6
binder="3BNC55 IgG (wild type) (antibody, V domains shown) VH: QVQLVQSGTAVKRPGASVRVSCQASGYTFTDYFIYWWRQAPGQGLEWLGWINPLTSQPSYPSRFQGRLTLTRDTFDEMLYMDLRGLRSDDTGIYFCARRHSDYCDFDIWGSGTQIIVSS VL: DIQMTQSPSSLSASVGDKVTITCQTSAGYLNWYQQRRGRAPKLLMYDGSRLVTGVPSRFSGRRWGTQYNLTIGSLQPEDIATYYCQVYEFFGPGTRLDLKS" measuredmetric="In vitro neutralization IC50" comparator=> measuredresult=50

Values from patent US20200165325A1
